Parameter: TGI. Scope: all listed entries.
- Tested on: MOLT-4 leukemia
- experiment: NCI tumour cell line growth inhibition, 48 h

# annotated cases, reported TGI shown
OCC1OC(Oc2cc(O)cc(/C=C/c3ccc(O)cc3)c2)C(O)C(O)C1O (configuration not stated) ... > 100 µM
CN=CN(C)c1c2ccccc2nc2ccccc12 ... > 100 µM
COc1ccn2c(C(C)=O)cc(C(=O)c3ccc4c(c3)Sc3ccccc3N4)c2c1 ... > 100 µM
CC1CC2C(=O)N(c3ccccc3)C(=O)C2c2c1c1ccccc1n2Cc1ccccc1 (configuration not stated) ... > 100 µM
N#Cc1cccc(C(=O)Nc2cccc(NC(=O)c3cccc(C#N)c3)c2)c1 ... > 100 µM

Kindly note the recorded TGI for CC(=O)Nc1ccccc1C=C1c2ccccc2-c2ccccc21 , which is > 100 µM

Kindly note the recorded TGI for O=C(O)C12C3C4C1C1C2C3C1(Br)C41OCCO1 (configuration not stated) , which is > 100 µM

---

- System: RPMI-8226 leukemia
- experiment: NCI tumour cell line growth inhibition, 48 h
Parameter: TGI. Scope: all listed entries.

# annotated cases, reported TGI shown
O=C(O)CCSCCCN1C(=O)c2ccccc2C1=O ... > 100 µM
COC(=O)C12OC(C)(C(CC(=O)OC(C)(C)C)C1=O)C1C(=O)N(c3ccccc3)C(=O)C12 (stereo not given) ... > 100 µM
O=c1c(Sc2c(O)c3ccccc3c3ccccc3c2=O)c(O)c2ccccc2c2ccccc12 ... > 100 µM
Cc1cc(C)nc(NC(=S)Nc2ccccc2Cl)c1 ... > 100 µM

Param item: C=C[C@H]1CC[C@H]2[C@@H]3CC=C4C[C@@H](OC5OCC(O)C(O)C5O)CC[C@]4(C)[C@H]3CC[C@]12C (stereo not given in full) ; param system: RPMI-8226 leukemia; output TGI: > 100 µM

---

- Test system: M14 melanoma
- experiment: NCI tumour cell line growth inhibition, 48 h; in the data active means GI50 below about 0.43 µM; inactive means the rest
Your response should consist of one outcome taken from active, inactive

Solved cases (5 shown):
CC(C)(O)C1CCC(Nc2ccc3ncc(-c4cccc(C(F)(F)F)c4)n3n2)CC1 (stereo unspecified) ... inactive
COc1ccc(C/C(C)=C(\c2ccc(OCCN3CCOCC3)cc2)c2ccc(OC(=O)Cc3ccccc3)cc2)cc1 ... inactive
CN(C)c1ccc(-c2cc(-c3ccc(Nc4nc(Nc5ccccc5)nc(Nc5ccc(Cl)cc5)n4)cc3)nc(N)n2)cc1 ... inactive
C=CC(=O)N1CCN(c2nc(OC[C@@H]3CCCN3C)nc3c2CCN(c2cccc4cccc(C)c24)C3)C[C@@H]1CC#N ... inactive
Cc1ccc(/C=C2/SC(Nc3nc(-c4nc(NC5=NC(=O)/C(=C\c6ccc(C)cc6)S5)sc4C)c(C)s3)=NC2=O)cc1 ... active

In: Any idea what this test logged for CCN(CCNc1ccc(C)c2sc3cc(Cl)ccc3c(=O)c12)CC(C)O (stereo unspecified) ?
Out: inactive

---

Parameter: TGI. Scope: all listed entries.
- Tested on: SF-295 CNS
- experiment: NCI tumour cell line growth inhibition, 48 h

# annotated cases, reported TGI shown
C=CCOc1ccc(/C(N=Nc2ccccc2)=N/NC(=O)c2ccccc2)cc1OC ... > 100 µM
O/N=C/c1cc2c(cc1Br)OCO2 ... > 100 µM
Cc1nc2ccc(F)cc2c2c1CCO2 ... > 100 µM
CC(C)(C)[Si](C)(C)OCC1OC(n2ccc(=O)[nH]c2=O)C(O[Si](C)(C)C(C)(C)C)[C@@]12O[C@H]2C(N)=O (some centres not stated) ... 17 µM
Nc1ncnc2c1ncn2CC(O)C(=O)O (configuration not stated) ... > 100 µM

Param item: NC1=NNC2(C(=O)N1)c1ccccc1-c1ccccc12 ; param system: SF-295 CNS; output TGI: > 10 µM

Param item: NC(=O)c1oc([N+](=O)[O-])c(-c2ccccc2)c1-c1ccccc1 ; param system: SF-295 CNS; output TGI: 35.3 µM

Param item: COc1cc(Cl)cc(N(O)C(C)=O)c1OCc1ccccc1 ; param system: SF-295 CNS; output TGI: > 100 µM

Param item: C/C(=N\NC(=S)NC1CCCC1)c1ccccn1 ; param system: SF-295 CNS; output TGI: > 43.6 µM

Param item: COc1cc(NCc2ccc3nc(-c4ccccc4)c(N)nc3c2)cc(OC)c1OC ; param system: SF-295 CNS; output TGI: 92.7 µM
